assay target: Cytochrome P450 2C9 (Homo sapiens)
assay method text: Cytochrome P450 Family 2 Subfamily C Member 9 (CYP2C9) small molecule antagonists: luciferase reporter qHTS assay (AID 1671198); also: nearly all actives have a fitted effect of over 50% in size
condition: P450-Glo CYP2C9 enzyme assay, luciferin luminescence; series mostly up to 115 µM
Records with an inconclusive call do not appear. Activity calls are given as the source filed them. Calls follow the shape of the dose curve; as a rule, active = well fitted inhibition curve with a large enough effect in the repeat runs; inconclusive = weak or mixed curves; inactive = no such curve, though single readings can be large or run the other way.
Log the outcome using a class from True (active), False (inactive)

# fetch the recorded call for `Cc1cc(OCCOCC[N+](C)(C)Cc2ccccc2)ccc1C(C)(C)CC(C)(C)C` here
True

Could you please tell me the result logged for `O=C(O)CCc1ccccc1` in this assay?
False

Hey, what did the test say about `COC(c1ccccc1)(c1ccccc1)[C@H](Oc1nc(C)cc(C)n1)C(=O)O` ?
False

Write down the call the test reported for this compound. Item: CCn1cc(C(=O)O)c(=O)c2cc(F)c(N3CCNC(C)C3)c(F)c21 (stereo not drawn)
False

Hi, sorry to bother you, what did the test record for `OCC(CO)N[C@H]1C[C@](O)(CO)[C@@H](O)[C@H](O)[C@H]1O` ?
False

Which result was noted for this compound in the test: `COC(=O)c1cccc(C(=O)OC)c1`
False

// param item: `CC1=C(C=O)C(C)(C)CC=C1` ; yields the recorded call
False

Identify the outcome logged in this assay for the compound shown: `Nc1nc2ccccc2[nH]1`
False

What outcome does the record of this test show for CCN1CCCC1CNC(=O)c1cc(S(=O)(=O)CC)c(N)cc1OC (stereo not drawn) ?
False

So what was the verdict on `COc1nc(C)nc(Cl)c1NC1=NCCN1` in this test?
False

Fill in: this test's call for CCC(=O)/C=C/C1C(C)=CCCC1(C)C (stereo not drawn) is ___
True

What classification did `CCCCCCCCCCCC[N+](C)(C)C` end up with in this test?
False

What is the recorded call for this compound in the test? `Cc1cccc2n[nH]nc12`
False

----------
assay target: Vitamin D3 receptor (Homo sapiens) (UniProt P11473)
Sequence (P11473 whole entry, looked up): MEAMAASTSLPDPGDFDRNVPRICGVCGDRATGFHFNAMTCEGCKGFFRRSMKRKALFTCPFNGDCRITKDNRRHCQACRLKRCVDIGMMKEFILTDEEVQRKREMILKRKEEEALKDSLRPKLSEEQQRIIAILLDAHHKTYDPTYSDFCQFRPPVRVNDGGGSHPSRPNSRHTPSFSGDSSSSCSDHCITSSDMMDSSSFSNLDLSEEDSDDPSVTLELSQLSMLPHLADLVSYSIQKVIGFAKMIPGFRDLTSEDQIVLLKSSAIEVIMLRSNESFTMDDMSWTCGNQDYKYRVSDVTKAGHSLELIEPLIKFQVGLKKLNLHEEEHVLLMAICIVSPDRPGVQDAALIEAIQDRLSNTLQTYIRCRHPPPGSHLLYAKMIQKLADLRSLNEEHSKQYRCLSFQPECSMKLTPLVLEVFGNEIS
assay method text: qHTS assay to identify small molecule agonists of the vitamin D receptor (VDR) signaling pathway (AID 743222)
condition: HEK293T VDR-UAS-bla, beta-lactamase FRET ratio, 16 h; series mostly up to 63.5 µM
Records with an inconclusive call do not appear. Active and inactive are the calls of the source. Calls come from the whole dose curve. Starred links: 1 amine or outer side, 2 acyl side, 3 side chain; linkers in the order of their positions; H or OH if unused. Positions of bridges follow the written chain, without caps; N, C: chain ends. Non-standard residues stand in square brackets, D forms with d. Residues, ends and D or L forms follow the SMILES beside them. Chains are numbered I, II in the order given. Actinocin(9to1) = Cc1c2oc3c(C)ccc(C(=O)[*:1])c3nc-2c(C(=O)[*:2])c(N)c1=O; NMeV = CN[C@H](C(=O)O)C(C)C; Sar = CNCC(=O)O
Return exactly one item of Y for active, N for inactive

Outcome? `CC1=C(C=O)C(C)(C)CC=C1`
N

Outcome? `NC12CC3CC(CC(C3)C1)C2`
N

How was `NCCCCCC(=O)O` classified in this test?
N

Record request — test call for `O=Nc1ccc(Nc2ccccc2)cc1`
N

Entry `Nc1cc(S(=O)(=O)O)cc2cc(S(=O)(=O)O)cc(O)c12` : call = ?
Y

Which result was noted for this compound in the test: `CC[C@]1(O)C[C@@H]2CN(CCc3c([nH]c4ccccc34)[C@@](C(=O)OC)(c3cc4c(cc3OC)N(C)[C@H]3[C@@](O)(C(=O)OC)[C@H](OC(C)=O)[C@]5(CC)C=CCN6CC[C@]43[C@@H]65)C2)C1`
N

I would be grateful if you could indicate the recorded call for `NC(N)=Nc1nc(CSCC/C(N)=N/S(N)(=O)=O)cs1` .
N

Tell me the recorded outcome of this test for Cc1c2oc3c(C)ccc(C(=O)N[C@@H]4C(=O)N[C@H](C(C)C)C(=O)N5CCC[C@H]5C(=O)N(C)CC(=O)N(C)[C@@H](C(C)C)C(=O)O[C@@H]4C)c3nc-2c(C(=O)N[C@@H]2C(=O)N[C@H](C(C)C)C(=O)N3CCC[C@H]3C(=O)N(C)CC(=O)N(C)[C@@H](C(C)C)C(=O)O[C@@H]2C)c(N)c1=O (I: T[dV]P[Sar][NMeV] / II: T[dV]P[Sar][NMeV]; ester I:1-I:C, II:1-II:C; linker I:N-II:N via Actinocin(9to1)) .
N

----------
assay method text: qHTS assay to identify small molecule antagonists of the vitamin D receptor (VDR) signaling pathway - cell viability counter screen (AID 743225); also: nearly all actives have a fitted effect of over 50% in size
condition: VDR-bla HEK293T viability, CellTiter-Glo luminescence, 16 h; series mostly up to 61 µM
Inconclusive results are not listed. Active and inactive are the calls of the source. Calls follow the shape of the dose curve; as a rule, active = well fitted cell-killing curve with a large enough effect in the repeat runs; inconclusive = weak or mixed curves, or effect the other way; inactive = no such curve, though single readings can be large or run the other way.
Choose the fitting class; nothing outside active, inactive is accepted.

Which result was noted for this compound in the test: `O=C(O)Cn1cnnn1`
inactive

Dear colleague, could you share the recorded outcome for `OCCN1CCNCC1` when you have a moment?
inactive

State the result this test recorded for `CC(C)(C)c1cc(C(C)(C)C)c(O)c(C(C)(C)C)c1` .
inactive

Kindly provide the recorded test outcome for the following compound: `CCOc1ccc2c(c1)C(C)=CC(C)(C)N2`
inactive

Record lookup: outcome of this test for `COC(=O)/C=C/c1ccccc1` ?
inactive

Identify the outcome logged in this assay for the compound shown: `O=C1OC2(c3ccc(O)cc3Oc3cc(O)ccc32)c2ccccc21`
inactive

Lab log entry: `CCCCCCCCCCCCCCCCCl` — outcome as called in the assay?
inactive

Record request — test call for `Nc1cc(S(=O)(=O)O)cc2cc(S(=O)(=O)O)cc(O)c12`
inactive

Per the records of this test, what outcome belongs to BrC1CCC(Br)C(Br)CCC(Br)C(Br)CCC1Br (stereo unspecified) ?
active

Which outcome did this test record for the compound CNC1(C)C2CCC(C2)C1(C)C (stereo unspecified) ?
inactive

Called result for `CC(=O)CC(=O)Nc1ccc2[nH]c(=O)[nH]c2c1`
inactive

For `CCC(C)(C)C(=O)O[C@H]1C[C@@H](C)C=C2C=C[C@H](C)[C@H](CC[C@@H]3C[C@@H](O)CC(=O)O3)[C@H]21` , which call appears in the assay record?
inactive

Any idea what this test logged for CCC(C)(Oc1ccc(C2(c3ccc(OC(C)(CC)C(=O)O)cc3)CCCCC2)cc1)C(=O)O (stereo unspecified) ?
inactive

Status in this test for `O=C(O)c1cn(-c2ccc(F)cc2)c2cc(N3CCNCC3)c(F)cc2c1=O` ?
inactive

# lookup: test call for `c1ccc2n[nH]nc2c1`
inactive

Recorded call for `O=C(O)c1cc(Cl)cc(Cl)c1` ?
inactive

Any idea what this test logged for `CCOc1ccccc1C(N)=O` ?
inactive

Write down the call the test reported for this compound. Item: CC(C(O)c1ccc(O)cc1)N1CCC(Cc2ccccc2)CC1 (stereo unspecified)
inactive

Record request — test call for CCCCC/C=C/CC1CC(=O)OC1=O (stereo unspecified)
inactive

Dear colleague, could you share the recorded outcome for `CC(C)(O)CCC(C)(C)O` when you have a moment?
inactive

State the result this test recorded for `CC(=O)OCC1=C(C(=O)O)N2C(=O)[C@@H](NC(=O)Cc3cccs3)[C@H]2SC1` .
inactive

Recorded test outcome, item `CC(C)(C)c1ccccc1`
inactive

Per the assay record, what outcome was assigned to `CC(C)(C)NC(=O)[C@@H]1CN(Cc2cccnc2)CCN1C[C@@H](O)C[C@@H](Cc1ccccc1)C(=O)N[C@H]1c2ccccc2C[C@H]1O` ?
inactive

Which outcome was entered for the compound `C=CC(=O)OCCCCCCOC(=O)C=C` in this test?
inactive

# fetch the recorded call for `NC(N)=Nc1nc(CSCC/C(N)=N/S(N)(=O)=O)cs1` here
inactive

In this assay, the call recorded for `O` was what?
inactive

----------
assay method text: qHTS assay to identify small molecule antagonists of the TGF-beta/Smad signaling pathway - cell viability counter screen (AID 1346824); also: nearly all actives have a fitted effect of over 50% in size
condition: SBE-bla HEK293T viability, CellTiter-Glo luminescence; series mostly up to 76.8 µM
Results filed as inconclusive are left out. Calls of active or inactive are those of the source. The call rests on the fitted dose curve; in most records, active means well fitted cell-killing curve with a large enough effect in the repeat runs; inconclusive means weak or mixed curves; inactive means flat fitted curve, though single readings scatter.
endpoint label: viability change, negative = cytotoxic

Examples with answers:
- O=C(O)Cn1cnnn1: inactive
- OCC(CO)N[C@H]1C[C@](O)(CO)[C@@H](O)[C@H](O)[C@H]1O: inactive
- CC[C@@H](N)CO: inactive
- COc1ccc(COC(C)=O)cc1: inactive
- CC(COc1ccccc1)N(CCCl)Cc1ccccc1 (stereo unspecified): inactive

Quick check: viability change, negative = cytotoxic of `CC(C)(C)c1ccccc1` ?
inactive

Request the reported viability change, negative = cytotoxic associated with CC(C)(C)NCC(O)c1cc(O)cc(O)c1 (stereo unspecified)
inactive

Which viability change, negative = cytotoxic value is on record for `C1COC(NC(C2CC2)C2CC2)=N1` ?
inactive

Record request: viability change, negative = cytotoxic value, item `Cc1occc(=O)c1OC(=O)C(C)C`
inactive

Item under review: OCCOCCN1CCN(C(c2ccccc2)c2ccc(Cl)cc2)CC1 (stereo unspecified) . Reported viability change, negative = cytotoxic?
inactive

Consider the compound `CC(=O)N[C@@H](CS)C(=O)O` and give its measured viability change, negative = cytotoxic.
inactive
